The measured values listed here are drawn from the supplement of paper PMC10307832.

# Tested on: NCI-H2170
# assay-info: relative viability (nuclei count vs DMSO), 5 days (fraction); higher = more cells survive
# condition-parameters: first compound 0.4 µM

molecule	relative viability
C[C@@H]1CN(CC(=O)Nc2ccc3c(c2)Cc2cccc(-c4cc(=O)cc(N5CCOCC5)o4)c2S3)C[C@H](C)O1 + C[C@@H](Oc1cc(-c2cnn(C3CCNCC3)c2)cnc1N)c1c(Cl)ccc(F)c1Cl [Crizotinib] (partner 1 µM)	1.21
Clc1ccc(Nc2nnc(Cc3ccncc3)c3ccccc23)cc1 [Vatalanib] + O=C(c1cc(Cc2n[nH]c(=O)c3ccccc23)ccc1F)N1CCN(C(=O)C2CC2)CC1 [Olaparib] (partner 8 µM)	0.702
COc1cc(N2CCC(C(N)=O)CC2)ccc1Nc1nc(N)c(Cl)c(Nc2ccccc2S(=O)(=O)C(C)C)n1 [HG-5-88-01] + NC(=O)Nc1cc(-c2cccc(F)c2)sc1C(=O)N[C@H]1CCCNC1 [AZD7762] (partner 0.2 µM)	0.907
C[C@@H]1CN(CC(=O)Nc2ccc3c(c2)Cc2cccc(-c4cc(=O)cc(N5CCOCC5)o4)c2S3)C[C@H](C)O1 + O=C(CCCCCCC(=O)Nc1ccccc1)NO [Vorinostat] (partner 1 µM)	0.798

----------
# Test system: NCI-H2023
# assay-info: relative viability (nuclei count vs DMSO), 5 days (fraction); higher = more cells survive
# condition-parameters: first compound 0.1265 µM
parameter: relative viability

compound	parameter	numeric-readout
COc1cc(N2CCC(C(N)=O)CC2)ccc1Nc1nc(N)c(Cl)c(Nc2ccccc2S(=O)(=O)C(C)C)n1 [HG-5-88-01] + COc1cccc2cc(-c3nc([C@H]4CC[C@H](C(=O)O)CC4)n4ncnc(N)c34)[nH]c12 [OSI-027] (partner 0.5 µM)	relative viability	0.407
Clc1ccc(Nc2nnc(Cc3ccncc3)c3ccccc23)cc1 [Vatalanib] + C[C@]1(O)C[C@@H](c2nc(-c3ccc4ccc(-c5ccccc5)nc4c3)c3c(N)nccn32)C1 [Linsitinib] (partner 1 µM)	relative viability	0.735
Clc1ccc(Nc2nnc(Cc3ccncc3)c3ccccc23)cc1 [Vatalanib] + CC(C)C[C@H](NC(=O)[C@H](Cc1ccccc1)NC(=O)c1cnccn1)B(O)O [Bortezomib] (partner 0.002 µM)	relative viability	0.837
COc1cc(N2CCC(C(N)=O)CC2)ccc1Nc1nc(N)c(Cl)c(Nc2ccccc2S(=O)(=O)C(C)C)n1 [HG-5-88-01] + CCNC(=O)c1noc(-c2cc(C(C)C)c(O)cc2O)c1-c1ccc(CN2CCOCC2)cc1 [Luminespib] (partner 0.01 µM)	relative viability	0.673
C[C@@H]1CN(CC(=O)Nc2ccc3c(c2)Cc2cccc(-c4cc(=O)cc(N5CCOCC5)o4)c2S3)C[C@H](C)O1 + O=C(CCCCCCC(=O)Nc1ccccc1)NO [Vorinostat] (partner 1 µM)	relative viability	0.59
COc1cc(N2CCC(C(N)=O)CC2)ccc1Nc1nc(N)c(Cl)c(Nc2ccccc2S(=O)(=O)C(C)C)n1 [HG-5-88-01] + N=C(N)NC(=N)NCCc1ccccc1 [Phenformin] (partner 250 µM)	relative viability	0.466
Clc1ccc(Nc2nnc(Cc3ccncc3)c3ccccc23)cc1 [Vatalanib] + CC(=O)c1c(C)c2cnc(Nc3ccc(N4CCNCC4)cn3)nc2n(C2CCCC2)c1=O [Palbociclib] (partner 0.5 µM)	relative viability	0.344
COc1cc(N2CCC(C(N)=O)CC2)ccc1Nc1nc(N)c(Cl)c(Nc2ccccc2S(=O)(=O)C(C)C)n1 [HG-5-88-01] + Cc1cc(Nc2cc(N3CCN(C)CC3)nc(Sc3ccc(NC(=O)C4CC4)cc3)n2)n[nH]1 [Tozasertib] (partner 0.1 µM)	relative viability	0.362
C[C@@H]1CN(CC(=O)Nc2ccc3c(c2)Cc2cccc(-c4cc(=O)cc(N5CCOCC5)o4)c2S3)C[C@H](C)O1 + Nc1nc2[nH]cc(CCc3ccc(C(=O)N[C@@H](CCC(=O)O)C(=O)O)cc3)c2c(=O)[nH]1 [Pemetrexed] (partner 0.2 µM)	relative viability	0.213
COc1cc(N2CCC(C(N)=O)CC2)ccc1Nc1nc(N)c(Cl)c(Nc2ccccc2S(=O)(=O)C(C)C)n1 [HG-5-88-01] + CS(=O)(=O)N1CCN(Cc2cc3nc(-c4cccc5[nH]ncc45)nc(N4CCOCC4)c3s2)CC1 [Pictilisib] (partner 1 µM)	relative viability	0.245
COc1cc(N2CCC(C(N)=O)CC2)ccc1Nc1nc(N)c(Cl)c(Nc2ccccc2S(=O)(=O)C(C)C)n1 [HG-5-88-01] + CC1(C)CCC(c2ccc(Cl)cc2)=C(CN2CCN(c3ccc(C(=O)NS(=O)(=O)c4ccc(N[C@H](CCN5CCOCC5)CSc5ccccc5)c(S(=O)(=O)C(F)(F)F)c4)cc3)CC2)C1 [Navitoclax] (partner 0.5 µM)	relative viability	0.94
COc1cc(N2CCC(C(N)=O)CC2)ccc1Nc1nc(N)c(Cl)c(Nc2ccccc2S(=O)(=O)C(C)C)n1 [HG-5-88-01] + C[C@@H](Oc1cc(-c2cnn(C3CCNCC3)c2)cnc1N)c1c(Cl)ccc(F)c1Cl [Crizotinib] (partner 1 µM)	relative viability	0.763
COc1cc(N2CCC(C(N)=O)CC2)ccc1Nc1nc(N)c(Cl)c(Nc2ccccc2S(=O)(=O)C(C)C)n1 [HG-5-88-01] + Cc1nc(NC(=O)N2CCC[C@H]2C(N)=O)sc1-c1ccnc(C(C)(C)C(F)(F)F)c1 [Alpelisib] (partner 2 µM)	relative viability	0.54
